src = PubChem BioAssay (NCI)

- Test system: A549/ATCC NSCLC
- Assay method text: NCI-60 one-dose screen, 48 h (100 = growth as untreated, 0 = no growth, -100 = all killed)
- Stated conditions: 10 µM unless noted
About 83,000 compounds went through this panel and 20% of them were active in at least one assay; those are over-represented in the sample as a whole.
I'd appreciate it if you could supply growth values for the items below.
Answers are plain numbers, in %.

[[record]]
molecule = "N#Cc1cccc(C2C3=C(COC3=O)N(CCO)c3cc4c(cc32)OCO4)c1 (configuration not stated)"
output_unit = "%"
endpoint_value = 39.5

[[record]]
molecule = "O=C(NNC(=O)c1ccc(NC(=O)c2ccccn2)cc1)Nc1ccc2ccccc2c1"
output_unit = "%"
endpoint_value = 108

[[record]]
molecule = "Cc1ccc(-c2csc(NC(=O)c3ccccc3CN3C(=O)c4ccccc4C3=O)n2)cc1"
output_unit = "%"
endpoint_value = 86.4

[[record]]
molecule = "CCOC(=O)C(Cc1ccc(OC)cc1)C(=O)OCC"
output_unit = "%"
endpoint_value = 51.7

[[record]]
molecule = "Clc1ccc(-c2cc(-c3ccccc3)nc(NCCNc3ccnc4cc(Cl)ccc34)n2)cc1"
output_unit = "%"
endpoint_value = 36.3

[[record]]
molecule = "CN(C)CCN1C(=O)c2cccc3c(/C=C/CN4C(=O)c5cccc6cccc(c56)C4=O)ccc(c23)C1=O"
output_unit = "%"
endpoint_value = 85.3


stdin: Given N#Cc1c(Nc2ccc(N3CCOCC3)cc2)nc(SCC(=O)c2ccc(Br)cc2)nc1-c1ccccc1 , state its recorded growth.
stdout: 97.3
